Where do the numbers come from? From PubChem BioAssay AID2685.

assay: qHTS Assay for Lipid Storage Modulators in Drosophila S3 Cells; conditions: BODIPY lipid droplet fluorescence, 18-24 h, cells fed with added oleic acid; measured here: cell count max response;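 further: cells counted by Cell Tracker Red CMTPX staining in the red channel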
Among all 320,000 compounds or so, about 2,100 (0.66%) were called active. About 53% were inconclusive and are not listed. This excerpt belongs to a sample that is enriched for actives.
endpoint: cell number change (%)
One number for each entry, in %.

State the recorded cell number change for every item in the following list.
1. CCn1c(=NC(=O)c2ccc(S(=O)(=O)N3CCOCC3)cc2)sc2cccc(OC)c21
2. COc1cccc(-c2nc(=S)c3c(o2)CCCC3)c1

[4.06, 9.57]

State the recorded cell number change for every item in the following list.
1. CCCNC(=O)c1ccc(N2CCC3(CC2)CC(c2ccccc2)=NO3)c(NC(=O)c2ccco2)c1
2. CCOC(=O)c1ccc(NC(=O)c2nc[nH]c2C(=O)N2CCc3ccccc3C2)cc1
3. COc1ccc(OC)c2sc(NC(=O)c3ccc(S(=O)(=O)N4CCOCC4)cc3)nc12
4. CCOC(CCn1c(SCC(=O)NC2CCCC2)nc2ccccc2c1=O)OCC
5. Cn1c(SCc2cc(=O)[nH]c(C(C)(C)C)n2)nnc1C(F)(F)F

[-21.9, 9.14, 4.36, 7.57, -1.02]

State the recorded cell number change for every item in the following list.
1. COC(=O)[C@@H](Cc1ccc(O)cc1)NC(=O)[C@H]1CCC(=O)N1C(=O)OCc1ccccc1
2. Cc1c(C(=O)n2cnc3ccccc32)cccc1[N+](=O)[O-]

1. -3.5
2. 23.4

Item under review: "COc1ccc(OCC(=O)NNC(=O)Cn2c(=O)cnc3ccccc32)cc1" . Reported cell number change?
2.51
